# experimental.system: FLC-1 (FRI-like carbapenemase-1) (Enterobacter cloacae, UniProt A0A2I5JVQ1)
# Sequence (A0A2I5JVQ1 entry or part of it): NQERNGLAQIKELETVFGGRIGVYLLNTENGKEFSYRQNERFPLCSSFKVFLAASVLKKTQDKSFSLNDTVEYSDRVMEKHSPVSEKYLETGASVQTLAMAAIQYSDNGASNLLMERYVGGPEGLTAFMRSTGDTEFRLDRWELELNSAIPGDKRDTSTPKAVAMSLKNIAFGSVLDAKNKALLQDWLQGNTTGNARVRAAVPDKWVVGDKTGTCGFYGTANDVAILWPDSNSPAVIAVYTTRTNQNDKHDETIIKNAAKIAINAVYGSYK
readout.name: IC50
A complete answer gives the number and then names the unit.

IN: Entry under review: O=C(O)[C@H]1/C(=C/CO)O[C@@H]2CC(=O)N21 [clavulanic acid] . Reported IC50?
OUT: 1970 nM
